Measured viability, T/C by item
System: 475296-252-R-J1-PDC spheroid viability;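 note: spheroids exposed to agents for seven days before readout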
assaySummary: Anticancer human tumor 475296-252-R-J1-PDC patient-derived rectal carcinoma cell line growth inhibition [PI3K]
experimentalSetup: second compound 0.01 µM; first compound 1 µM; active compounds read low; spheroids with HUVEC and MSC
Give your result in % as a bare value.

// known answers, use as guide
compound="CNC(=O)c1ccc(N2C(=S)N(c3ccc(C#N)c(C(F)(F)F)c3)C(=O)C2(C)C)cc1F + CC(Nc1ccc2c(c1)OCCn1cc(N3C(=O)OCC3C(F)F)nc1-2)C(N)=O" numericreadout=93
compound="CC1(C)CCC(CN2CCN(c3ccc(C(=O)NS(=O)(=O)c4ccc(NCC5CCOCC5)c([N+](=O)[O-])c4)c(Oc4cnc5[nH]ccc5c4)c3)CC2)=C(c2ccc(Cl)cc2)C1 + COc1c(OCCCN2CCOCC2)ccc2c3n(c(=NC(=O)c4cnc(N)nc4)nc12)CCN3" numericreadout=104
compound="C#Cc1c(F)ccc2cc(O)cc(-c3ncc4c(N5CC6CCC(C5)N6)nc(OCC56CCCN5CC(F)C6)nc4c3F)c12 (centres undefined) + CC(Nc1ccc2c(c1)OCCn1cc(N3C(=O)OCC3C(F)F)nc1-2)C(N)=O" numericreadout=73.1
compound="CC(Cn1ccc(-c2ccc(C#N)c(Cl)c2)n1)NC(=O)c1cc(C(C)O)[nH]n1 (centres undefined) + CC(Nc1ccc2c(c1)OCCn1cc(N3C(=O)OCC3C(F)F)nc1-2)C(N)=O" numericreadout=88.4
compound="CNC(=O)c1ccc(N2C(=S)N(c3ccc(C#N)c(C(F)(F)F)c3)C(=O)C2(C)C)cc1F + COc1c(OCCCN2CCOCC2)ccc2c3n(c(=NC(=O)c4cnc(N)nc4)nc12)CCN3" numericreadout=97.5
compound="CC(C)NCC(C(=O)N1CCN(c2ncnc3c2C(C)CC3O)CC1)c1ccc(Cl)cc1 (centres undefined) + CC(Nc1ccc2c(c1)OCCn1cc(N3C(=O)OCC3C(F)F)nc1-2)C(N)=O" numericreadout=67.6
compound="CC1(C)CCC(Nc2ncc(C(F)(F)F)c(-c3c[nH]c4c(P(C)(C)=O)c(C#N)ccc34)n2)CN1 (centres undefined) + CC(Nc1ccc2c(c1)OCCn1cc(N3C(=O)OCC3C(F)F)nc1-2)C(N)=O" numericreadout=136
compound="Cn1ncc(Cl)c1-c1cc(C(=O)NC(CN)Cc2cccc(F)c2)sc1Cl (centres undefined) + CC(Nc1ccc2c(c1)OCCn1cc(N3C(=O)OCC3C(F)F)nc1-2)C(N)=O" numericreadout=73

Would you kindly look at the next entry?
Given the compound CCN1CCN(Cc2ccc(Nc3ncc(F)c(-c4cc(F)c5nc(C)n(C(C)C)c5c4)n3)nc2)CC1 + CC(Nc1ccc2c(c1)OCCn1cc(N3C(=O)OCC3C(F)F)nc1-2)C(N)=O , what is its reported viability, T/C?
87.9

Data origin, for the record: PubChem BioAssay AID1963980
